# Target under test: T1, Ab-12, anti-PD-L1xCD28 non-masked antibody in Vh format
# T1 construct: also called PDL1xCD28 non-masked (Vh)
# Protocol notes: competition ELISA: peptide titrated against 5 nM Ab-12; binding of Ab-12 to captured biotinylated CD28 antigen is read
Ends that are not written are not given here.
Can you tell me IC50 for the items I'm about to list?
Your answer should be a plain number; it is taken to be in nM.

What does the record list as IC50 for MDWCPRFMWDECFN (cysteine pairing not given here; also: biotinylated, site not given here, Synthetic biotinylated peptide loaded on streptavidin biosensors) [Peptide-45] ?
370

Bench note: what IC50 did MDWCPRHMWNYCFA (cysteine pairing not given here; also: biotinylated, site not given here, Synthetic biotinylated peptide loaded on streptavidin biosensors) [Peptide-46] show?
240

Request the reported IC50 associated with MDWCPRERWVDCFF (cysteine pairing not given here; also: biotinylated, site not given here) [Peptide-9]
1860

Endpoint output: IC50 of MDWCPRDMWSVCFS (cysteine pairing not given here; also: biotinylated, site not given here, Synthetic biotinylated peptide loaded on streptavidin biosensors) [Peptide-44] . Value?
940

Find the recorded IC50 belonging to MDWCPRDLWVHCFA (cysteine pairing not given here; also: biotinylated, site not given here, Synthetic biotinylated peptide loaded on streptavidin biosensors) [Peptide-41] and report it.
150

Reported IC50 for MDWCPRDLWSECFF (cysteine pairing not given here; also: biotinylated, site not given here, Synthetic biotinylated peptide loaded on streptavidin biosensors) [Peptide-40] : what is it?
250

Need IC50 of MDWCPRERWVDCFF [Peptide-51] , thanks.
2430

Any idea what its IC50 is? The binder is MDWCPRDMWSECFA (cysteine pairing not given here; also: biotinylated, site not given here, Synthetic biotinylated peptide loaded on streptavidin biosensors) [Peptide-43]
240
